Cited source: patent EP3868760A1

Collected IC50 values appear next to each entry.
study target: EGFR L858R (Homo sapiens, UniProt P00533, L858R)
Sequence (P00533 25-1210 L858R): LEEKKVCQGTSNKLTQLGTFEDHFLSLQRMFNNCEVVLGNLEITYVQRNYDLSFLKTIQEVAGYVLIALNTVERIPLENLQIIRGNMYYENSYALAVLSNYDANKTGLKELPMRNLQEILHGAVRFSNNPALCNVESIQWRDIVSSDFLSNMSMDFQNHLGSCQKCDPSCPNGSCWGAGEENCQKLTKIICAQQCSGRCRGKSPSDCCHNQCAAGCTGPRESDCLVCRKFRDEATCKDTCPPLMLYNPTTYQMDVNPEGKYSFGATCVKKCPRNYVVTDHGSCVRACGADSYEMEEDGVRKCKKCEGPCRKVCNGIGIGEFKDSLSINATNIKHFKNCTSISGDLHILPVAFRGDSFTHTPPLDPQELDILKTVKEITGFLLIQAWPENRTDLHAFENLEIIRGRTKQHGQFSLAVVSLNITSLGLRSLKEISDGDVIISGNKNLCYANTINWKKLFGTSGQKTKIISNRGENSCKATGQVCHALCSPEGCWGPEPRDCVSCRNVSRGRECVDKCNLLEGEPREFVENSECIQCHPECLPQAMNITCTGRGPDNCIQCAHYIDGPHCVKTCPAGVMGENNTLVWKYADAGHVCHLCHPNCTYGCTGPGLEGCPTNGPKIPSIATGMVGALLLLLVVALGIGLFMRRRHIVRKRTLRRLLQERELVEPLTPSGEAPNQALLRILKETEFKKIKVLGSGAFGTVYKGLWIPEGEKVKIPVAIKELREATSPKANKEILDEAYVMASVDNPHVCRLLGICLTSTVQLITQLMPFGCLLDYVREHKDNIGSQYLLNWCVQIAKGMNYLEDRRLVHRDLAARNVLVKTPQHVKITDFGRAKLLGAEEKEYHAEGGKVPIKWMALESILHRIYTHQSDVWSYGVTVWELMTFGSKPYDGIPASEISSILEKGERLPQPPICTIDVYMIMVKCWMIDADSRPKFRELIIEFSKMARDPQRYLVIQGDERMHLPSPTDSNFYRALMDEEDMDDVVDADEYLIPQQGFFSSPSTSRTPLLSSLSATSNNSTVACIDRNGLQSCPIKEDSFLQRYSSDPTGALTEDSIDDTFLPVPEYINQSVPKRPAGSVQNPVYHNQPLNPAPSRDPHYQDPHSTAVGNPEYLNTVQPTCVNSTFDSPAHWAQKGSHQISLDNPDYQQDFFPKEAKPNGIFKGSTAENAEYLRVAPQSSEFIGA
experiment notes: EGFR L858R Lance assay

| molecule | study target | IC50 |
| --- | --- | --- |
| C=CC(=O)Nc1cc(-c2c(-c3ccc(N4CCN(C)CC4)cc3)[nH]c3ncc(-c4cn(C)nc4C)cc23)ccc1C [Example 5] | EGFR L858R (Homo sapiens, UniProt P00533, L858R) | ≤ 50 nM |
| C=CC(=O)Nc1cc(-c2c(-c3ccc(N4CCN(C)CC4)cc3)[nH]c3ncc(-c4cnn(C5CC5)c4)cc23)ccc1C [Example 6] | EGFR L858R (Homo sapiens, UniProt P00533, L858R) | ≤ 50 nM |

###

Quick reference for pIC50 among some compounds
System: EGFR Exon 20 InsNPH Ba/F3
experiment notes: EGFR Exon 20 InsNPH Ba/F3 CellTiter-Glo assay
Type: cell-based
condition info: Mus musculus, BaF3; 72 h incubation; read-out: EGFR Exon 20 InsNPH Ba/F3 CTG IC50
pIC50: −log10 of the molar value.

| record smiles | study target | pIC50 |
| --- | --- | --- |
| C=CC(=O)Nc1cc(-c2c(-c3ccc(N4CCN(C)CC4)cc3)[nH]c3ncc(-c4cnn(C5CC5)c4)cc23)ccc1C | EGFR Exon 20 InsNPH Ba/F3 | ≥ 7.30 |
| C=CC(=O)Nc1cc(-c2c(-c3ccc(N4CCN(C)CC4)cc3)[nH]c3ncc(-c4cnn(C)c4)cc23)ccc1C | EGFR Exon 20 InsNPH Ba/F3 | ≥ 7.30 |
| C=CC(=O)Nc1cc(-c2c(-c3ccc(N4CCN(C)CC4)cc3)[nH]c3ncc(-c4ccnn4C)cc23)ccc1C | EGFR Exon 20 InsNPH Ba/F3 | 7.00 to 7.30 |

###

study target: HER2 INS YVMA (Homo sapiens, UniProt P04626, INS775YVMA)
Sequence (P04626 with tags, fused parts or gaps INS775YVMA): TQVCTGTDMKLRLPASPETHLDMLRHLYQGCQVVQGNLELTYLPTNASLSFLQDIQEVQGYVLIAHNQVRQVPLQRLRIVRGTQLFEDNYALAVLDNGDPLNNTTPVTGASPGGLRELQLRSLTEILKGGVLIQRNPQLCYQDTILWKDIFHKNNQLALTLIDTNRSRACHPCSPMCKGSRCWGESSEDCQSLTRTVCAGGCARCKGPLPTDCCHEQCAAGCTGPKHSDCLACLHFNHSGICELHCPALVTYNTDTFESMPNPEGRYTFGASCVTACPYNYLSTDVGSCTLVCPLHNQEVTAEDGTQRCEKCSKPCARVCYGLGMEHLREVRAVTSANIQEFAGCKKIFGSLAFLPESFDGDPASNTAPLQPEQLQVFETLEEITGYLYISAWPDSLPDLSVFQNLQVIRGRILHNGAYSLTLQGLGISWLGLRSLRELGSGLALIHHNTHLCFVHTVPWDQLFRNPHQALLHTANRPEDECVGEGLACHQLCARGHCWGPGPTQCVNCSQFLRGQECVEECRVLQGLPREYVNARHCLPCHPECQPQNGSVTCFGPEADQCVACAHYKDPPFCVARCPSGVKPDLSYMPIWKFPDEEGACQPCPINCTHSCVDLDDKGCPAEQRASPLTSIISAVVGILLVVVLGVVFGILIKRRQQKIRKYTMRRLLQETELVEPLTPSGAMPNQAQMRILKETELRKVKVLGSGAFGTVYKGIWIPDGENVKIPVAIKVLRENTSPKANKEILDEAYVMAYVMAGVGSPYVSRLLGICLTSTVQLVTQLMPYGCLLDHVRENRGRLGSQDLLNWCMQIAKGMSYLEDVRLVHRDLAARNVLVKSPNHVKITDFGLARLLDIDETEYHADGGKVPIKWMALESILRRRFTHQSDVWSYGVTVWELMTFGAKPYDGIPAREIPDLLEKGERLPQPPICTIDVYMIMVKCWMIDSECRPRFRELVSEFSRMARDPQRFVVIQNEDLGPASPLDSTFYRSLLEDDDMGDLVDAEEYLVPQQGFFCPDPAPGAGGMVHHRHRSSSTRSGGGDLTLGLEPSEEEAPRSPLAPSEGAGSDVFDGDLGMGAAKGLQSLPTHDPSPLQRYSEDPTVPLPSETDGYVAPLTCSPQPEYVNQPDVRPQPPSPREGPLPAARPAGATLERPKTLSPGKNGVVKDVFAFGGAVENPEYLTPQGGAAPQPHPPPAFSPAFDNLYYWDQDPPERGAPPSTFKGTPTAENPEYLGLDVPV
experiment notes: Her2 Exon 20 InsYVMA Lance kinase activity assay
condition info: 1 h incubation, 1,6 µM ATP
test readout: IC50

| record smiles | test readout | measured result |
| --- | --- | --- |
| C=CC(=O)Nc1cc(-c2c(-c3ccc(N4CCN(C)CC4)cc3)[nH]c3ncc(-c4cnn(C)c4C)cc23)ccc1C | IC50 | ≤ 0.05 µM |
| C=CC(=O)Nc1cc(-c2c(-c3ccc(N4CCN(C)CC4)cc3)[nH]c3ncc(-c4cnn(CCOC)c4)cc23)ccc1C | IC50 | ≤ 0.05 µM |
| C=CC(=O)Nc1cc(-c2c(-c3ccc(N4CCN(C)CC4)cc3)[nH]c3ncc(-c4cnn(CC)c4)cc23)ccc1C | IC50 | ≤ 0.05 µM |
| C=CC(=O)Nc1cc(-c2c(-c3ccc(N4CCN(C)CC4)cc3)[nH]c3ncc(-c4ccnn4C)cc23)ccc1C | IC50 | ≤ 0.05 µM |

###

Entries and their IC50
Test system: H1975
experiment notes: H1975 CellTiter-Glo assay
Assay type: cell-based
condition info: Homo sapiens, NCI-H1975; 72 h incubation; read-out: H1975 CTG IC50

| record smiles | IC50 |
| --- | --- |
| C=CC(=O)Nc1cc(-c2c(-c3ccc(N4CCN(C)CC4)cc3)[nH]c3ncc(-c4cnn(C5CC5)c4)cc23)ccc1C | 100 to 500 nM |
| C=CC(=O)Nc1cc(-c2c(-c3ccc(N4CCN(C)CC4)cc3)[nH]c3ncc(-c4ccnn4C)cc23)ccc1C | 100 to 500 nM |
| C=CC(=O)Nc1cc(-c2c(-c3ccc(N4CCN(C)CC4)cc3)[nH]c3ncc(-c4cnn(CC)c4)cc23)ccc1C | 100 to 500 nM |
| C=CC(=O)Nc1cc(-c2c(-c3ccc(N4CCN(C)CC4)cc3)[nH]c3ncc(-c4cnn(C)c4C)cc23)ccc1C | 50 to 100 nM |
| C=CC(=O)Nc1cc(-c2c(-c3ccc(N4CCN(C)CC4)cc3)[nH]c3ncc(-c4cn(C)nc4C)cc23)ccc1C | 500 to 1000 nM |
| C=CC(=O)Nc1cc(-c2c(-c3ccc(N4CCN(C)CC4)cc3)[nH]c3ncc(-c4cnn(C)c4)cc23)ccc1C | 100 to 500 nM |
| C=CC(=O)Nc1cc(-c2c(-c3ccc(N4CCN(C)CC4)cc3)[nH]c3ncc(-c4cnn(CCOC)c4)cc23)ccc1C | 100 to 500 nM |

###

study target: EGFR wt (Homo sapiens, UniProt P00533)
Sequence (P00533 25-1210): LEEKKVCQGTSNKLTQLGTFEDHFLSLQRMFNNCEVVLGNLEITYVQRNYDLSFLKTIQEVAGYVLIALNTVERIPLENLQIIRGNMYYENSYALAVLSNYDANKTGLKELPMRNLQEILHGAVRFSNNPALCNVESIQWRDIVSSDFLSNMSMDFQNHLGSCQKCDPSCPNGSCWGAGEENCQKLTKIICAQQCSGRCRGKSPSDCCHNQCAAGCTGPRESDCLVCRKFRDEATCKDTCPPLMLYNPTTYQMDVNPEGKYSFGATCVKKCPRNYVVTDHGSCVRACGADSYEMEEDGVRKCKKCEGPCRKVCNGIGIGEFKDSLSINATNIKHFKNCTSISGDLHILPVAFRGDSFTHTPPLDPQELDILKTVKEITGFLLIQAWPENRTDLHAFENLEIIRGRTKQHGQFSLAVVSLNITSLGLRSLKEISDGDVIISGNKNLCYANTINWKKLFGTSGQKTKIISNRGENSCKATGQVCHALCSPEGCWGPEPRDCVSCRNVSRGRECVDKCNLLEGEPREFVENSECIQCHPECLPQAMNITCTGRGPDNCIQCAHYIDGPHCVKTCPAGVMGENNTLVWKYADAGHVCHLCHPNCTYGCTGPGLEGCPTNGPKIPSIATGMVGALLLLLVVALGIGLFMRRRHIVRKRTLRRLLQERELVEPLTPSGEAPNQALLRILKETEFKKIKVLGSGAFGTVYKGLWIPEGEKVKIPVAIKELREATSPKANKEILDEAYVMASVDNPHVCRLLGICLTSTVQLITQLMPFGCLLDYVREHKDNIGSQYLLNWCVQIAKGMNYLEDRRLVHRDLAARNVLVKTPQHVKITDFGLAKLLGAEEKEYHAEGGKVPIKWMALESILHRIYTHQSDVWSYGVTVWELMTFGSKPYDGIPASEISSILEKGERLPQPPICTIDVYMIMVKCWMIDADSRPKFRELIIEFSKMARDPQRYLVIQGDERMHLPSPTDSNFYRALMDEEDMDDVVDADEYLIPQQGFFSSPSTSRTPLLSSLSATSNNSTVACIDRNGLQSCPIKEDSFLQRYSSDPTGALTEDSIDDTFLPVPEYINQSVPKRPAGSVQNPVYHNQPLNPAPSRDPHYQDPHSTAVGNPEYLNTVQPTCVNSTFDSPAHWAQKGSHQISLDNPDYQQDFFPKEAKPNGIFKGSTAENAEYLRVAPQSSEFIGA
pIC50: −log10 of the molar value.

| record smiles | pIC50 |
| --- | --- |
| C=CC(=O)Nc1cc(-c2c(-c3ccc(N4CCN(C)CC4)cc3)[nH]c3ncc(-c4cnn(CCOC)c4)cc23)ccc1C | ≥ 7.30 |

###

study target: EGFR (del746-750) (Homo sapiens, UniProt P00533, DEL746-750)
Sequence (P00533 with tags, fused parts or gaps DEL746-750): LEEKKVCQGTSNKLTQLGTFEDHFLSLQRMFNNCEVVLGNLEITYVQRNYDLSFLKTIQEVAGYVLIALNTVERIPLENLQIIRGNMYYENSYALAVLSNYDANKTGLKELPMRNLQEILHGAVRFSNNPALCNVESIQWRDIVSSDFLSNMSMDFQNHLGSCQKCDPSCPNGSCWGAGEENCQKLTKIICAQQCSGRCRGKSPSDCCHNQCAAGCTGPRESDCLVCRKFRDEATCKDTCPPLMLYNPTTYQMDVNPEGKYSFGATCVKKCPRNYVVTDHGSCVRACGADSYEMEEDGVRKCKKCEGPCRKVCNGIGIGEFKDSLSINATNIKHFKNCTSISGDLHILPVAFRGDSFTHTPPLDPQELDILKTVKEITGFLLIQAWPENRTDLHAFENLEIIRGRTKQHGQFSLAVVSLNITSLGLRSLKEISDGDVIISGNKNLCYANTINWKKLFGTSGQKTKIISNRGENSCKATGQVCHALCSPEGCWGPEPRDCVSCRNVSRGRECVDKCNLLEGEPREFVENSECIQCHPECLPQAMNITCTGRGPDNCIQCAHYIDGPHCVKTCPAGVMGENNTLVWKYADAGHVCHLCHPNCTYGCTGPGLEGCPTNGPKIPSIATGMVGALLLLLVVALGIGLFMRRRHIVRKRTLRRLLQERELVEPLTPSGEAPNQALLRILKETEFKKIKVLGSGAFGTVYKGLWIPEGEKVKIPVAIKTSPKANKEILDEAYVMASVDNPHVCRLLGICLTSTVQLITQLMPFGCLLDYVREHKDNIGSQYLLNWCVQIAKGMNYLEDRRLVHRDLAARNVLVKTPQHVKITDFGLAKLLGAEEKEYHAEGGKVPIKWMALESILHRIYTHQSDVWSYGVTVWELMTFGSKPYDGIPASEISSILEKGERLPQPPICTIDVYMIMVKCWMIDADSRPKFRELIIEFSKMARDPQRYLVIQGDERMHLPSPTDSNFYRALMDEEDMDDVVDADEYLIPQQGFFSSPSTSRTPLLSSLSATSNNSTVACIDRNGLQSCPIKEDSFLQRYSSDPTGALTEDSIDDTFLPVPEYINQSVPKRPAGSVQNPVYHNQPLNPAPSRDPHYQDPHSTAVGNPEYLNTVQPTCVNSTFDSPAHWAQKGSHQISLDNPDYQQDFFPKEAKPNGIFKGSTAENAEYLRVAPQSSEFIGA
experiment notes: EGFR (del746-750) Lance assay
# IC50 values compiled below

| record smiles | IC50 |
| --- | --- |
| C=CC(=O)Nc1cc(-c2c(-c3ccc(N4CCN(C)CC4)cc3)[nH]c3ncc(-c4cnn(C5CC5)c4)cc23)ccc1C | ≤ 50 nM |
| C=CC(=O)Nc1cc(-c2c(-c3ccc(N4CCN(C)CC4)cc3)[nH]c3ncc(-c4cn(C)nc4C)cc23)ccc1C | ≤ 50 nM |
